Each item that follows carries a reported Activity ((ng of TXB2) (mg of protein)-1).
- test system: Prostaglandin G/H synthase 1 (Homo sapiens) (UniProt P23219)
- Sequence (P23219 whole entry): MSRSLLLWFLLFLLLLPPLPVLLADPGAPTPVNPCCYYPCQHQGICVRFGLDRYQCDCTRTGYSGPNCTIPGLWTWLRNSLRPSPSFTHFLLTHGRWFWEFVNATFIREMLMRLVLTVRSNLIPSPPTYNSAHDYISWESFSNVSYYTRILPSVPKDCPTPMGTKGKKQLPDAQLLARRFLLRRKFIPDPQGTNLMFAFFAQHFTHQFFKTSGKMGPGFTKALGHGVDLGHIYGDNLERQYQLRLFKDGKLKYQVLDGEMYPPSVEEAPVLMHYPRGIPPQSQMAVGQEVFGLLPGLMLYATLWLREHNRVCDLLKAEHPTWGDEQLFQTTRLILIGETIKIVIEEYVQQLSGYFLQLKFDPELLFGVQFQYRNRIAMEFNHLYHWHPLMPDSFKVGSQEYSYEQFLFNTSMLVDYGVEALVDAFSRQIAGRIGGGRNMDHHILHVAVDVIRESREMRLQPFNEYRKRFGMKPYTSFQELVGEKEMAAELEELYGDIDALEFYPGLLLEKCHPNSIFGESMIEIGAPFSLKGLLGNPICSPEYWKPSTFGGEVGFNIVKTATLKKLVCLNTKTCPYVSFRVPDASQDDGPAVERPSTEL
- experiment notes: In vitro activity at a concentration of 10 uM against Prostaglandin G/H synthase 1
recorded metric: Activity ((ng of TXB2) (mg of protein)-1)

| smiles text | observed |
| --- | --- |
| CC(=O)c1ccc(N2CCN(c3nc4sc5c(Cl)nnnc5c4cc3C#N)CC2)cc1 | 104 |
| COc1ccc2c(c1)c(CC(=O)O)c(C)n2C(=O)c1ccc(Cl)cc1 | 63.8 |
| CC(=O)c1ccc(N2CCN(c3nnnc4c3sc3nc(N5CCOCC5)c(C#N)cc34)CC2)cc1 | 142 |
| N#Cc1cc2c(nc1N1CCOCC1)sc1c(Cl)nnnc12 | 112 |
| CC1CCN(c2nc3sc4c(Cl)nnnc4c3cc2C#N)CC1 | 130 |
| CC(=O)c1ccc(N2CCN(c3nnnc4c3sc3nc(N5CCN(Cc6ccccc6)CC5)c(C#N)cc34)CC2)cc1 | 134 |
| N#Cc1cc2c(nc1N1CCC(Cc3ccccc3)CC1)sc1c(Cl)nnnc12 | 128 |
| CC1CCN(c2nnnc3c2sc2nc(N4CCOCC4)c(C#N)cc23)CC1 | 130 |
| N#Cc1cc2c(nc1N1CCOCC1)sc1c(N3CCNCC3)nnnc12 | 149 |
| CC1CCN(c2nc3sc4c(N5CCC(C)CC5)nnnc4c3cc2C#N)CC1 | 124 |
| CN1CCN(c2nnnc3c2sc2nc(N4CCN(Cc5ccccc5)CC4)c(C#N)cc23)CC1 | 123 |
| CC(=O)c1ccc(N2CCN(c3nnnc4c3sc3nc(N5CCC(C)CC5)c(C#N)cc34)CC2)cc1 | 127 |

* * *

- test system: Nitric oxide synthase, inducible (Mus musculus) (UniProt P29477)
- Sequence (P29477 whole entry): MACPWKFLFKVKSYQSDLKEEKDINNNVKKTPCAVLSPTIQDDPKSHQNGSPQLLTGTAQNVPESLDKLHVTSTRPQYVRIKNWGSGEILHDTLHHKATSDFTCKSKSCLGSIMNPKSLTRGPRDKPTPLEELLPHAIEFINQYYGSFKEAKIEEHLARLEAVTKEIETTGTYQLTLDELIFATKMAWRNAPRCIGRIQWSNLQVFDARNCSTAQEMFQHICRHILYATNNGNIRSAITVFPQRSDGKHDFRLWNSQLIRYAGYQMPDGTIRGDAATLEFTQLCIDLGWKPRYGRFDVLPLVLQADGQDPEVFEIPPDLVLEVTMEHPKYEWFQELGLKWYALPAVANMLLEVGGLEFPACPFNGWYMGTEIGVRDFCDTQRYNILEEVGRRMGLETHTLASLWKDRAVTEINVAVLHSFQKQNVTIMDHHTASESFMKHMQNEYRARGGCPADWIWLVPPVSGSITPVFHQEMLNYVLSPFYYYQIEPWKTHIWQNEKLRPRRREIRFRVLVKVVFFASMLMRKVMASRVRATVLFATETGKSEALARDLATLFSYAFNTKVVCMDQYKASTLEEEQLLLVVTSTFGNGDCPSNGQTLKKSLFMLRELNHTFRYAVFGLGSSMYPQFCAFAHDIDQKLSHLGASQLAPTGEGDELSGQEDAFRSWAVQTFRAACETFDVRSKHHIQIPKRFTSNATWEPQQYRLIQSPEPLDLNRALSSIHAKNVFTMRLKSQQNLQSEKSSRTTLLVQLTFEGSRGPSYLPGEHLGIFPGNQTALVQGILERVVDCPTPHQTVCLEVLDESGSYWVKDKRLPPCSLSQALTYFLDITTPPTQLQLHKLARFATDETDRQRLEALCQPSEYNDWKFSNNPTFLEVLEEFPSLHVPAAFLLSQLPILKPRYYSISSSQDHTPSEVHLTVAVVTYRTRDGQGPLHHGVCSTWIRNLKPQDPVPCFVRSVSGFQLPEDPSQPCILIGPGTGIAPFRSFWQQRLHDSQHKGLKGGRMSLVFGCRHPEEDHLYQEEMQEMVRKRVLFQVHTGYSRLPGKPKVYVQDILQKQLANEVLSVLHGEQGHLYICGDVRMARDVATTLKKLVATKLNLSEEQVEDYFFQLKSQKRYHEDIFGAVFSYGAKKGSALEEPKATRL
- experiment notes: In vitro activity at a concentration of 10 uM against Inducible nitric oxide synthase (iNOS)
# Activity (pM of citrulline min-1 (mg of protein)-1) per entry
recorded metric: Activity (pM of citrulline min-1 (mg of protein)-1)

| compound | observed |
| --- | --- |
| CC(=O)c1ccc(N2CCN(c3nc4sc5c(Cl)nnnc5c4cc3C#N)CC2)cc1 | 14.1 |
| CC1CCN(c2nc3sc4c(N5CCC(C)CC5)nnnc4c3cc2C#N)CC1 | 12.4 |
| CC(=O)c1ccc(N2CCN(c3nnnc4c3sc3nc(N5CCC(C)CC5)c(C#N)cc34)CC2)cc1 | 12.5 |
| N=C(N)NN [PIMAGEDINE] | 5.4 |
| CC1CCN(c2nnnc3c2sc2nc(N4CCOCC4)c(C#N)cc23)CC1 | 13.1 |
| CN1CCN(c2nnnc3c2sc2nc(N4CCN(Cc5ccccc5)CC4)c(C#N)cc23)CC1 | 13.1 |
| N#Cc1cc2c(nc1N1CCOCC1)sc1c(N3CCNCC3)nnnc12 | 15.1 |
| CC(=O)c1ccc(N2CCN(c3nnnc4c3sc3nc(N5CCOCC5)c(C#N)cc34)CC2)cc1 | 14.2 |
| N#Cc1cc2c(nc1N1CCC(Cc3ccccc3)CC1)sc1c(Cl)nnnc12 | 13.1 |
| CC(=O)c1ccc(N2CCN(c3nnnc4c3sc3nc(N5CCN(Cc6ccccc6)CC5)c(C#N)cc34)CC2)cc1 | 13.5 |
| N#Cc1cc2c(nc1N1CCOCC1)sc1c(Cl)nnnc12 | 14 |
